- Assay System: Dipeptidyl peptidase 1 (Homo sapiens)
- Sequence (P53634 25-134 limits assumed): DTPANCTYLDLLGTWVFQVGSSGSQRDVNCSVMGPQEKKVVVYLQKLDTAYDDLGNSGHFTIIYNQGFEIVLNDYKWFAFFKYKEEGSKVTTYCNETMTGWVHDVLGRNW
- Sequence (P53634 231-394 limits assumed): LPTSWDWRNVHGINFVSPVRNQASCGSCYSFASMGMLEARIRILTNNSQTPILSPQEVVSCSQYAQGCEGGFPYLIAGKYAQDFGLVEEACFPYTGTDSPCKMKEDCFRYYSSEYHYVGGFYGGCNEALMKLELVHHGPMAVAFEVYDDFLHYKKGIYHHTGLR
- Sequence (P53634 395-463 limits assumed): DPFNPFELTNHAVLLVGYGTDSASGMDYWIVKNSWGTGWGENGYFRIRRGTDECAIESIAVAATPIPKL
- Protocol: Inhibition of recombinant human DPPI using H-Gly-Arg-AFC as substrate preincubated for 30 mins followed by substrate addition measured after 60 mins by fluorescence plate reader analysis
Property Name: IC50 (nM)

Chemical Structure	IC50, nM
N#Cc1ccc(-c2ccc(C[C@@H](C#N)NC(=O)[C@@H]3CCCN3)cc2)cc1	50.1

A: CS[C@@H]1CN[C@H](C(=O)N[C@H](C#N)Cc2ccc(-c3ccc(C#N)cc3)cc2)C1
B: N#Cc1ccc(-c2ccc(C[C@@H](C#N)NC(=O)[C@@H]3C[C@@H](F)CN3)cc2)cc1
C: N#Cc1ccc(-c2ccc(C[C@@H](C#N)NC(=O)[C@@H]3C[C@H](O)CN3)cc2)cc1
D: N#Cc1ccc(-c2ccc(C[C@@H](C#N)NC(=O)[C@@H]3CC(F)(F)CN3)cc2)cc1
[ask] Arrange these molecules by their IC50, starting with the largest number. Order the labels as requested and list them.
[reply] B, D, C, A
(B: 631 nM, D: 79.4 nM, C: 6.31 nM, A: 0.398 nM)

----------
- Assay System: UniProt P53634
- Protocol: Inhibition of recombinant human DPPI using H-Gly-Arg-AMC as substrate preincubated for 30 mins followed by substrate addition measured after 60 mins by fluorescence plate reader analysis
Property Name: IC50 (nM)

P: N#Cc1ccc(-c2ccc(C[C@@H](C#N)NC(=O)[C@@H]3C[C@@H](O)CN3)cc2)cc1
Q: N#C[C@H](Cc1ccc(-c2ccccc2)cc1)NC(=O)[C@@H]1C[C@@H](O)CN1
[ask] # argmax over IC50 for candidates P and Q To answer, give the label that identifies your chosen option.
[reply] Q
(Q: 158 nM, P: 50.1 nM)
